Each recorded value in this set is attributed to patent EP1247803A2.

- targetOrSystem: FLK-1 receptor (Mus musculus)
- Construct: expressed in transfected cells; host or cells: NIH3T3 C7#3
- Sequence (P35918 20-1345): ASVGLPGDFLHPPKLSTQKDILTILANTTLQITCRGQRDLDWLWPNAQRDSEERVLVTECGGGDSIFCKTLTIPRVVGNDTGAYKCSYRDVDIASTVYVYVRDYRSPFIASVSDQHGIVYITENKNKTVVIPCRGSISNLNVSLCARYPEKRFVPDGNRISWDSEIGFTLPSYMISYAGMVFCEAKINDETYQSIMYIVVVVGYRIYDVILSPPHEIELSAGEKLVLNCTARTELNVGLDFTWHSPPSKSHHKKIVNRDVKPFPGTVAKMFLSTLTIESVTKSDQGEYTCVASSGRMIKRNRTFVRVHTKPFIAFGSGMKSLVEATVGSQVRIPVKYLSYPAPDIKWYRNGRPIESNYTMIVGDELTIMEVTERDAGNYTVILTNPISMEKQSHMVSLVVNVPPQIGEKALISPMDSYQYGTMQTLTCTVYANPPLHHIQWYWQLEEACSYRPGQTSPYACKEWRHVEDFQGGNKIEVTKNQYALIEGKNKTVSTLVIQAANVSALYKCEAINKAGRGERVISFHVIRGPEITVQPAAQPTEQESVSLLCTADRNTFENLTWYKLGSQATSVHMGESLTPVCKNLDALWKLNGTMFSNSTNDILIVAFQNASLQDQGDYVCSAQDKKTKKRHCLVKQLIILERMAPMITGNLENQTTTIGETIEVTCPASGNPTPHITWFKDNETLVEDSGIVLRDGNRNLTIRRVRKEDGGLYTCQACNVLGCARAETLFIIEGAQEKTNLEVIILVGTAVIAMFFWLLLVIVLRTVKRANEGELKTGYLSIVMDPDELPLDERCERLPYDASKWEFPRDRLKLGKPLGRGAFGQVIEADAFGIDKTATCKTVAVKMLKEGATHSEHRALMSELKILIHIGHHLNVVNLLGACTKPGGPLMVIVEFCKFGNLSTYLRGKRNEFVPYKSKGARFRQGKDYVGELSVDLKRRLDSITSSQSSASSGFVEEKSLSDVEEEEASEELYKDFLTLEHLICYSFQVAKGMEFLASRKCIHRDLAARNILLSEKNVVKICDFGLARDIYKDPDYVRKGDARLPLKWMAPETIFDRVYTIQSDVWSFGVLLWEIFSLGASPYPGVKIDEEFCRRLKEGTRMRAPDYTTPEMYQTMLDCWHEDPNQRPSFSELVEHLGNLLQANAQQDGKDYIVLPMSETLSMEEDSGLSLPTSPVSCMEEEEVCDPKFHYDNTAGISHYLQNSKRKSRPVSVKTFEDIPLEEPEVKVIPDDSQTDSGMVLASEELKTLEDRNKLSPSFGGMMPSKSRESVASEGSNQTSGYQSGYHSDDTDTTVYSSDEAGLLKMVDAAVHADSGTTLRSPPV
- method: FLK-1 ELISA (kinase activity of the FLK-1 receptor in FLK-1/NIH3T3 cells, VEGF stimulated)
- Assay type: cell-based
- Description: An enzyme linked immunosorbent assay (ELISA) was conducted to measure the catalytic activity of the FLK-1 receptor and more specifically, the inhibition or activation of indolinone compounds on the catalytic activity of the FLK-1 receptor. Specifically, the following assay was conducted to measure catalytic activity of the FLK-1 receptor in FLK-1/NIH3T3 cells. […]
The entries below are paired with their reported Fik Kinase %Inhibition.
I only need the number, in %, no unit after it.

Return value of Fik Kinase %Inhibition for input COc1c(Br)cc(C=C2C(=O)Nc3ccc(S(=O)(=O)N4CCOCC4)cc32)cc1C(C)(C)C , no commentary.
31.0

Return value of Fik Kinase %Inhibition for input O=C1Nc2ccc(S(=O)(=O)N3CCOCC3)cc2C1=Cc1coc2ccc([N+](=O)[O-])cc2c1=O , no commentary.
13.3

Return value of Fik Kinase %Inhibition for input CNS(=O)(=O)c1ccc2c(c1)C(=Cc1ccc(O)cc1)C(=O)N2 , no commentary.
-123.5

Return value of Fik Kinase %Inhibition for input Cc1cc2occ(C=C3C(=O)Nc4ccc(CCCl)cc43)c(=O)c2cc1C , no commentary.
12.9

Return value of Fik Kinase %Inhibition for input CC(C)(C)c1cc(C=C2C(=O)Nc3ccc(I)cc32)cc([N+](=O)[O-])c1O , no commentary.
10.1

Return value of Fik Kinase %Inhibition for input O=C1Nc2ccc(S(=O)(=O)Nc3ccc(C(F)(F)F)cc3)cc2C1=Cc1cccs1 , no commentary.
19.0

Return value of Fik Kinase %Inhibition for input CNS(=O)(=O)c1ccc2c(c1)C(=Cc1cc(Br)c(OCc3ccccc3)c(C(C)(C)C)c1)C(=O)N2 , no commentary.
33.3

Return value of Fik Kinase %Inhibition for input O=C1Nc2ccc(S(=O)(=O)Nc3ccc(C(F)(F)F)cc3)cc2C1=Cc1cc(O)ccc1O , no commentary.
9.7

Return value of Fik Kinase %Inhibition for input O=C1Nc2ccc(S(=O)(=O)Nc3ccc(C(F)(F)F)cc3)cc2C1=Cc1coc2c(Br)cc(Br)cc2c1=O , no commentary.
21.8

Return value of Fik Kinase %Inhibition for input COc1cccc(OC)c1C=C1C(=O)Nc2ccc(I)cc21 , no commentary.
-1.3
